Below: a set of entries, each annotated with reported IC50.
- assayed system: Endothelin-1 receptor (Homo sapiens, UniProt P25101)
- Sequence (P25101 whole entry): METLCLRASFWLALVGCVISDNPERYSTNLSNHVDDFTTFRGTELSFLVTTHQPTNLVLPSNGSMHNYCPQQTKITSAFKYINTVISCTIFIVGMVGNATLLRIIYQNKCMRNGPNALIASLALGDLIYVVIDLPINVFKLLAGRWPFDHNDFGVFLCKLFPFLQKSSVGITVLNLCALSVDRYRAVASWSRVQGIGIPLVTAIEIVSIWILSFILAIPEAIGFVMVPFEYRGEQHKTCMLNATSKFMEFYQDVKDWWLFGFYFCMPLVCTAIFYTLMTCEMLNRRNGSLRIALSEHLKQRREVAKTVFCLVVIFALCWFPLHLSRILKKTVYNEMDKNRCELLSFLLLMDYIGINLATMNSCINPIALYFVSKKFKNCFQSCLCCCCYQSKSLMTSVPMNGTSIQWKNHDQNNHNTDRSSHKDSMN
- procedure details: Displacement of 125I-labeled endothelin 1 from human ETA receptor expressed in CHO-K1 cells incubated for 4 hrs by gamma counting analysis

Observe how each entry below is paired with its result.
smiles string: CCCc1nc2c(C)cc(C(=O)NCCc3ccccc3)cc2n1Cc1ccc(-c2ccccc2S(=O)(=O)Nc2onc(C)c2C)cc1
assayed system: Endothelin-1 receptor (Homo sapiens, UniProt P25101)
reported: 956 nM

smiles string: CCCc1nc2c(C)cc(C(=O)NCCN3CCOCC3)cc2n1Cc1ccc(-c2ccccc2S(=O)(=O)Nc2onc(C)c2C)cc1
assayed system: Endothelin-1 receptor (Homo sapiens, UniProt P25101)
reported: 1400 nM

Would you kindly look at the next entry?
Hello, please tell me recorded IC50 for this one: CCCc1nc2c(C)cc(C(=O)NC(C)(C)C)cc2n1Cc1ccc(-c2ccccc2S(=O)(=O)Nc2onc(C)c2C)cc1
140000 nM

Data origin: ChEMBL document CHEMBL3734700
